Reported TGI values for the following molecules.
system: M14 melanoma; assay: NCI tumour cell line growth inhibition, 48 h
Where a SMILES comes first, the peptide text is derived from it. Bridges are numbered along the chain shown (N, C = ends). [ ]: non-standard residue; d: D form. Aib = CC(C)(N)C(=O)O; βAla = NCCC(=O)O

These recorded examples may help you get a feel for the data.
INSERT INTO measurements (molecule, result) VALUES
  ('CC1=C(C#N)C(=C(C#N)C#N)OC1(C)Cc1ccccc1 (centres undefined)', '> 100 µM'),
  ('CC(=O)O[C@@H]1C[C@]2(C(=O)c3ccccc3)C(=O)C(=O)S[C@]12c1ccccc1', '> 100 µM'),
  ('CC(=O)Nc1ccc2c3c(cc(O)c2c1)N(C(=O)CCCC(=O)N1CC(CCl)c2c1cc(O)c1cc(NC(C)=O)ccc21)CC3CCl (centres undefined)', '0.0175 µM');

Field request: TGI | item: CCCCc1ccc(N=C(N)N)cc1
63.5 µM

Moving on to CC1(C)NC(=O)C(NC(=O)C(N)CC(=O)O)CCCCNC(=O)CCNC1=O (centres undefined) (H-DK[Aib][βAla]; lactam 2-C; configuration not given here)
> 100 µM

Moving on to COc1cc(OC)cc(OCc2nc3cc(C(F)(F)F)ccc3nc2-c2ccccc2)c1
> 100 µM

Moving on to CCn1cc2c(=O)n3ncn(-c4ccc(Br)cc4)c3nc2n1
> 100 µM

Moving on to CC(C)(C)C(=O)OCOP(=O)(NCc1ccccc1)C1CCCN(O)C1=O (centres undefined)
18.7 µM

Moving on to Cc1ccc(O)c(NC(=O)c2cccc(Nc3ccnc(C(F)(F)F)c3)c2)c1
22.3 µM

----------
system: BT-549 breast; experiment: NCI tumour cell line growth inhibition, 48 h; in the data active means GI50 below about 0.43 µM; inactive means the rest
Answer with one of the outcomes yes (1) for active, no (0) for inactive

The following compounds have reported results that may help.
INSERT INTO assay_data (compound, test_target, class_name) VALUES
  ('CCc1ccc(Oc2c(-c3ccc(OCc4ccc(Cl)cc4)cc3O)n[nH]c2C(F)(F)F)cc1', 'BT-549 breast', 'no (0)'),
  ('CC[C@H](C)[C@H](NC(=O)[C@H]1CCCCN1C)C(=O)N(C)[C@H](C[C@@H](OC(C)=O)c1cccc(C(=O)N[C@@H](Cc2ccccc2)C[C@H](C)C(=O)OC)n1)C(C)C', 'BT-549 breast', 'yes (1)'),
  ('O=C1NC(=C(Cl)Cl)/C(=N/S(=O)(=O)N2CCCCC2)N1', 'BT-549 breast', 'no (0)'),
  ('O=C1Nc2c(ccc(Cl)c2Cl)/C1=C/c1cc(Br)c(O)c(Br)c1', 'BT-549 breast', 'no (0)'),
  ('Cc1onc(-c2ccccc2)c1C(=O)N/N=C/c1cc(Cl)cc(Cl)c1O', 'BT-549 breast', 'no (0)'),
  ('O=C1N[C@@H]2[C@@H](O)[C@@H](O)[C@H](O)C[C@H]2c2cc3c(c(O)c21)OCCO3', 'BT-549 breast', 'yes (1)'),
  ('O=C(CSc1nc2c(n1Nc1ccccc1)-c1ccccc1SC2)Nc1nc(-c2ccc(Cl)cc2)cs1', 'BT-549 breast', 'no (0)'),
  ('Cc1c(C)n(CCCN2CCN(C)CC2)c2ccc(Oc3cccc(C(=O)N4CCN(CCc5ccc(F)cc5)CC4)c3)cc12', 'BT-549 breast', 'no (0)');

GET /call?item= Clc1c(Cl)[n+](Cc2ccc3ccccc3c2)cn1Cc1ccc2ccccc2c1 returns the recorded outcome of this test.
no (0)

Moving on to CC1Cc2c(Cl)ncnc2N(C)c2ccc(Cl)cc21 (stereo not drawn)
yes (1)

Moving on to Nc1nc(/C=C\c2ccc([N+](=O)[O-])s2)nc(N2CCN(c3ccccc3)CC2)n1
no (0)

Moving on to CC(C)C[C@H](NC(=O)CNC(=O)c1cc(Cl)ccc1Cl)B(O)O
yes (1)

Moving on to CC(C)(C)C(=O)OCOP(=O)(NCc1ccccc1)C1CCCN(O)C1=O (stereo not drawn)
no (0)

Moving on to Cc1cc2nc(NCCN)n(Cc3ccc(F)c(Cl)c3)c2cc1C
no (0)

Moving on to O=c1oc2ccc(I)cc2c(=O)n1-c1ccc(Br)cc1F
no (0)

Moving on to C=CN(C(=O)N1CCN(c2cc3c(cc2F)c(=O)c(C(=O)O)cn3C2CC2)CC1)c1nc(-c2ccc(OC)cc2)cs1
no (0)

Moving on to COc1c/c(=C2\C=c3ccccc3=N2)[nH]/c1=C\c1[nH]c(C)cc1C
yes (1)

Moving on to O=C(CN(/C=C/C(=O)C(F)(F)F)c1ccc(Cl)cc1)c1ccc(Cl)cc1
no (0)

----------
Reported TGI values for the following compounds.
system: IGROV1 ovarian; experiment: NCI tumour cell line growth inhibition, 48 h
Number in µM, nothing else.

These recorded examples may help you get a feel for the data.
INSERT INTO results (smi, test_target, numeric_result) VALUES
  ('CC(C)[N+]([O-])(CCCNc1c2ccccc2nc2cccc([N+](=O)[O-])c12)C(C)C', 'IGROV1 ovarian', 0.488),
  ('COc1ccc2c(c1)Cc1c(NCCN(C)C)ccc(C(=O)NCCCN(C)CCCNC(=O)c3ccc(NCCN(C)C)c4c3Nc3ccc(OC)cc3C4)c1N2', 'IGROV1 ovarian', 3.95),
  ('COc1c/c(=C2\C=c3ccccc3=N2)[nH]/c1=C\c1[nH]c(C)cc1C', 'IGROV1 ovarian', 17.7),
  ('OC(CNc1ccnc2cc(Cl)ccc12)CNc1ccnc2cc(Cl)ccc12', 'IGROV1 ovarian', 36.8),
  ('Cc1ccc2c(c1)SC1=Nc3sc4cc(C)ccc4[n+]3CN12', 'IGROV1 ovarian', 34);

Alright, here's another compound for you.
Write down the reported TGI of CCCCCCCCCCCCCCCC1=NCC[N+]1(CCO)CCO , test system: IGROV1 ovarian.
2.63

----------
system: MDA-N; experiment: NCI tumour cell line growth inhibition, 48 h
Where a SMILES comes first, the peptide text is derived from it. Bridges are numbered along the chain shown (N, C = ends). [ ]: non-standard residue; d: D form. Aib = CC(C)(N)C(=O)O; βAla = NCCC(=O)O
Reported TGI values for the following compounds.

INSERT INTO results (compound, result) VALUES
  ('COc1ccc(C(=O)C#Cc2cn(C3CC(O)C(CO)O3)c(=O)[nH]c2=O)cc1 (centres undefined)', '> 100 µM'),
  ('O=C(O)CSc1n[nH]c(=O)[nH]c1=O', '> 100 µM'),
  ('CC(=O)OCCn1cnc2c(NCC=C(C)C)ncnc21', '> 100 µM');

Write down the reported TGI of CCN1CCC(O)(c2ccc(Oc3ccc(Cl)cc3)cc2)C(C(=O)c2ccc(Oc3ccc(Cl)cc3)cc2)C1 (centres undefined) , test system: MDA-N.
27 µM

Moving on to CC(=O)Nc1ccc2c(c1)/C(=C\c1ccc([N+](C)(C)C)cc1)c1ccccc1-2
> 100 µM

Moving on to COC(COC(N)=O)C1=C(N2CC2)C(=O)C(C)=C(N2CC2)C1=O (centres undefined)
0.269 µM

Moving on to Cc1cc(S(=O)(=O)Nc2n[nH]c(-c3ccc(Cl)cc3)n2)c(SSc2cc(Cl)c(C)cc2S(=O)(=O)Nc2n[nH]c(-c3ccc(Cl)cc3)n2)cc1Cl
> 100 µM

Moving on to N#CC12C(=O)N3C(=NC(c4ccco4)NC3c3ccco3)C1(C#N)C(c1ccco1)NC1=C2CCCC1 (centres undefined)
> 100 µM

Moving on to CC1(C)NC(=O)C(NC(=O)C(N)CC(=O)O)CCCCNC(=O)CCNC1=O (centres undefined) (H-DK[Aib][βAla]; lactam 2-C; configuration not given here)
> 100 µM

----------
test system: HOP-62 NSCLC; test: NCI tumour cell line growth inhibition, 48 h
Reported TGI values for the following compounds.
Number in µM, nothing else.

These recorded examples may help you get a feel for the data.
INSERT INTO measurements (compound, unit_text, numeric_result) VALUES
  ('CN[C@H]1CN(c2ccc3c(=O)c(C(=O)O)cn(-c4nccs4)c3n2)C[C@@H]1OC', 'µM', 3.4),
  ('C/C=C(\C)c1cc(=O)c2c(C)cc3c(c2o1)C(=O)c1c(O)c(C2CC(C)(N(C)C)C(OC(C)=O)C(C)O2)cc(C2CC(N(C)C)C(O)C(C)O2)c1C3=O (centres undefined)', 'µM', 6.45),
  ('CC1=C(C(=O)OC2CC3CCC2(C)C3(C)C)C2Nc3ccccc3N(C)C2O1 (centres undefined)', 'µM', 16.6),
  ('CCCCN1C(=O)C2Cc3c([nH]c4ccccc34)C(c3cccc(O)c3)N2C1=O (centres undefined)', 'µM', 33.1),
  ('COc1cc(/C=C/c2cc(/C=C/c3ccc(O)c(OC)c3)n(C(=O)c3ccc(Cl)cc3)n2)ccc1O', 'µM', 6.92);

Field request: TGI | item: CCc1ccc(Oc2c(-c3ccc(OCc4ccc(Cl)cc4)cc3O)n[nH]c2C(F)(F)F)cc1
3.48

Moving on to CCCCCCCCCCCCCCCC1=NCC[N+]1(CCO)CCO
3.23

Moving on to O=c1c2ccccc2sc2c(NCCCNCCO)nc3ccccc3c12
2.82
